- measured-on: human recombinant CBL-b (human Biotin CBL-b recombinant protein a.a. 39-426) (Homo sapiens)
- Construct: human Biotin CBL-b recombinant protein a.a; 39-426; Biotin (biotinylated)
- protocol-notes: Biochemical assay for CBL-b inhibition (ligand displacement TR-FRET)
- recorded-conditions: 50 nM CBL-b, 0.3 μM Bodipy FL-Probe, read-out: IC50 (CBL-b inhibition, group)
observed-property: IC50

Worked set:
compound: C[C@H]1CCCN(Cc2cc(Cl)nc(N3Cc4ccc([C@H](C)Cc5nncn5C)cc4C3=O)c2)C1 (single isomer, unassigned) [Compound 90]
IC50: < 80 nM

compound: C[C@@H](Cc1nncn1C)c1ccc2c(c1)C(=O)N(c1cc(CNCC3CCC3)cc(Cl)n1)C2 (single isomer, unassigned) [Compound 171]
IC50: < 80 nM

compound: Cn1cnnc1-c1cc(Cl)ccc1-c1ccc2c(c1)C(=O)N(c1cc(CNC[C@H]3CCCO3)cc(Cl)n1)C2 (single isomer, unassigned) [Compound 124]
IC50: < 80 nM

compound: C[C@H]1CCCN(Cc2cc(Cl)nc(N3Cc4ccc(-c5ccc(Cl)cc5-c5nncn5C)cc4C3=O)c2)C1 [Compound 113]
IC50: < 80 nM

compound: Cn1cnnc1CC1(c2ccc3c(c2)C(=O)N(c2cc(CN4CCCCC4)cc(Cl)n2)C3)COC1 [Compound 64]
IC50: < 80 nM

compound: CC(C)c1cc(CN2CCC[C@H](C)C2)cc(N2Cc3ccc(C4(Cc5nncn5C)COC4)cc3C2=O)c1 [Compound 15]
IC50: 80 to 300 nM

Field: next compound
Input Cn1cnnc1CC1(c2ccc3c(c2)C(=O)N(c2cc(CN4CCCC(F)(F)C4)cc(C(F)(F)F)n2)C3)COC1 [Compound 47] . Output IC50: 80 to 300 nM

* * *

- measured-on: human recombinant CBL-b (human Biotin CBL-b recombinant protein a.a. 39-426) (Homo sapiens, UniProt Q13191)
- Construct: human Biotin CBL-b recombinant protein a.a; 39-426; Biotin (biotinylated)
- Sequence (Q13191 39-426): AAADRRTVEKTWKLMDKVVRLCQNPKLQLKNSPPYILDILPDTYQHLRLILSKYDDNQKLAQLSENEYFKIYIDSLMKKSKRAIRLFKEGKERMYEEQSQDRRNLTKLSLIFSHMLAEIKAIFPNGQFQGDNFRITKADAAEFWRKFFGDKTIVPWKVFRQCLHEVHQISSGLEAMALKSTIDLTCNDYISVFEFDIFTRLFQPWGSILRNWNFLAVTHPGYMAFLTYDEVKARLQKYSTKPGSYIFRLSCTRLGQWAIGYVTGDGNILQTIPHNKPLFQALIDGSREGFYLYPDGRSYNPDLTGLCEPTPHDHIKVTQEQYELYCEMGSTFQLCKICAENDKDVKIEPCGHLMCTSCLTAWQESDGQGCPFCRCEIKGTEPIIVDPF
- protocol-notes: Biochemical assay for CBL-b inhibition (ligand displacement TR-FRET)
- recorded-conditions: 50 nM CBL-b, 0.3 μM Bodipy FL-Probe, read-out: IC50 (CBL-b inhibition, group)
pIC50: −log10 of the molar value.
observed-property: pIC50

compound: Cn1cnnc1CC1(c2ccc3c(c2)C(=O)N(c2cc(CNC[C@@H]4CCCO4)cc(Cl)n2)C3)COC1 (single isomer, unassigned)
pIC50: > 7.10
--
compound: Cc1cc(CNCC2CC2)cc(N2Cc3ccc(-c4cc(F)c(F)cc4-c4nncn4C)cc3C2=O)n1
pIC50: 6.52 to 7.10

Please report pIC50 for every entry that follows.
1. C[C@H](NCC1CC(F)(F)C1)c1cc(Cl)nc(N2Cc3ccc(C4(Cc5nncn5C)COC4)cc3C2=O)c1 (single isomer, unassigned)
2. CO[C@H]1CCN(Cc2cc(C)nc(N3Cc4ccc(-c5ccc(F)cc5-c5nncn5C)cc4C3=O)c2)C1
3. C[C@H]1CCCN(Cc2cc(Cl)nc(N3Cc4ccc(-c5ccccc5-c5nncn5C)cc4C3=O)c2)C1

1: > 7.10; 2: 5.30 to 6.52; 3: > 7.10

* * *

- measured-on: human recombinant CBL-b (human Biotin CBL-b recombinant protein a.a. 39-426) (Homo sapiens, UniProt Q13191)
- Construct: human Biotin CBL-b recombinant protein a.a; 39-426; Biotin (biotinylated)
- protocol-notes: Biochemical assay for CBL-b inhibition (ligand displacement TR-FRET)
- recorded-conditions: 50 nM CBL-b, 0.3 μM Bodipy FL-Probe, read-out: IC50 (CBL-b inhibition, group)
pIC50: −log10 of the molar value.
observed-property: pIC50

Worked set:
molecule: Cn1cnnc1CC1(c2ccc3c(c2)C(=O)N(c2cc(CNC4CCCC4O)cc(Cl)n2)C3)COC1 (single isomer, unassigned) [Compound 209]
reported-value: > 7.10
//
molecule: CCCC(Cc1nncn1C)c1ccc2c(c1)C(=O)N(c1cc(CNCC3CC3)cc(Cl)n1)C2 (stereo not shown)
reported-value: 6.52 to 7.10
//
molecule: Cc1cc(CN2CCC[C@H]2CO)cc(N2Cc3ccc(-c4ccc(F)cc4-c4nncn4C)cc3C2=O)n1
reported-value: 5.30 to 6.52

Please report pIC50 for every entry that follows.
1. CCC(C)NCc1cc(C)nc(N2Cc3ccc(-c4ccc(F)cc4-c4nncn4C)cc3C2=O)c1 (stereo not shown)
2. Cc1cc(CNCC2CC2)cc(N2Cc3ccc(-c4ccc(F)c(F)c4-c4nncn4C)cc3C2=O)n1

1. > 7.10
2. 5.30 to 6.52

Please report pIC50 for every entry that follows.
1. Cc1nc(CNCc2cc(Cl)nc(N3Cc4ccc(C5(Cc6nncn6C)COC5)cc4C3=O)c2)cs1
2. C[C@H](NCC1CC1)c1cc(Cl)nc(N2Cc3ccc(C4(Cc5nncn5C)COC4)cc3C2=O)c1 (single isomer, unassigned)

1. 6.52 to 7.10
2. > 7.10
